Tested on: Saccharomyces cerevisiae BY4741 SeMeCo community
protocol_notes: z-score of subpopulation abundance vs DMSO median, subpopulation auxotrophic for L; higher = larger share of this subpopulation than in DMSO controls
measurement_context: 10 µM; 24 h; SM minimal medium; subpopulation (auxotrophy): L
Where a name gives a salt, the structure may show the parent alone.
I'd appreciate it if you could supply z-score of subpopulation abundance values for the items below.
Field format: numeric only.

Consider the compound shown here: C[N+]1(C)[C@@H]2C[C@@H](OC(=O)C(O)(c3cccs3)c3cccs3)C[C@H]1[C@@H]1O[C@@H]12 [Tiotropium Bromide hydrate] What is its recorded z-score of subpopulation abundance?
-0.76

Consider the compound shown here: CN(C)c1cc(NC(=O)CNC(C)(C)C)c(O)c2c1CC1CC3C(N(C)C)C(=O)C(C(N)=O)=C(O)C3(O)C(=O)C1=C2O (centres undefined) What is its recorded z-score of subpopulation abundance?
-1.67

Consider the compound shown here: COc1ccc(CN2CCN(C(c3ccc(F)cc3)c3ccc(F)cc3)CC2)c(OC)c1OC [Lomerizine 2HCl] What is its recorded z-score of subpopulation abundance?
0.3

Consider the compound shown here: N[C@@H](C(=O)N[C@@H]1C(=O)N2C(C(=O)O)=C(Cl)CS[C@H]12)c1ccccc1 What is its recorded z-score of subpopulation abundance?
0.23

Consider the compound shown here: O=c1[nH]cc(F)c(=O)[nH]1 What is its recorded z-score of subpopulation abundance?
-0.27

Consider the compound shown here: CCCCNc1ccc(C(=O)OCCN(C)C)cc1 [Tetracaine HCl] What is its recorded z-score of subpopulation abundance?
-0.03

Consider the compound shown here: C[n+]1ccccc1/C=N/O [Pralidoxime chloride] What is its recorded z-score of subpopulation abundance?
-0.96

Consider the compound shown here: Clc1ccc(CCC(Cn2ccnc2)Sc2c(Cl)cccc2Cl)cc1 (centres undefined) [Butoconazole nitrate] What is its recorded z-score of subpopulation abundance?
-1.91

Consider the compound shown here: CCOc1cc(N)c(Cl)cc1C(=O)NCC1CN(Cc2ccc(F)cc2)CCO1 (centres undefined) [Mosapride] What is its recorded z-score of subpopulation abundance?
-0.65

Consider the compound shown here: CCCc1nc(C)c2c(=O)nc(-c3cc(S(=O)(=O)N4CCN(CC)CC4)ccc3OCC)[nH]n12 [Vardenafil HCl Trihydrate] What is its recorded z-score of subpopulation abundance?
0.04

Consider the compound shown here: Cc1cc(O)c(C(=O)N[C@@H](C(=O)N[C@@H]2C(=O)N3C(C(=O)O)=C(CSc4nnnn4C)CS[C@H]23)c2ccc(O)cc2)cn1 [Cefpiramide sodium] What is its recorded z-score of subpopulation abundance?
-0.92

Consider the compound shown here: CC(C)c1nc(N(C)S(C)(=O)=O)nc(-c2ccc(F)cc2)c1/C=C/[C@@H](O)C[C@@H](O)CC(=O)O [Rosuvastatin] What is its recorded z-score of subpopulation abundance?
2.53

Consider the compound shown here: CO[C@H]1C[C@@H]2CC[C@@H](C)[C@@](O)(O2)C(=O)C(=O)N2CCCC[C@H]2C(=O)O[C@H]([C@H](C)C[C@@H]2CC[C@@H](OP(C)(C)=O)[C@H](OC)C2)CC(=O)[C@H](C)/C=C(\C)[C@@H](O)[C@@H](OC)C(=O)[C@H](C)C[C@H](C)/C=C/C=C/C=C/1C What is its recorded z-score of subpopulation abundance?
-0.55

Consider the compound shown here: COc1ccc2cc3[n+](cc2c1OC)CCc1cc2c(cc1-3)OCO2 [Berberine Sulfate] What is its recorded z-score of subpopulation abundance?
-1.84

---

Test system: Saccharomyces cerevisiae BY4741 SeMeCo community
protocol_notes: z-score of subpopulation abundance vs DMSO median, subpopulation auxotrophic for HLM; higher = larger share of this subpopulation than in DMSO controls
measurement_context: 10 µM; 24 h; SM minimal medium; subpopulation (auxotrophy): HLM
Where a name gives a salt, the structure may show the parent alone.
I'd appreciate it if you could supply z-score of subpopulation abundance values for the items below.
Field format: numeric only.

Consider the compound shown here: NC(=O)c1ncn([C@@H]2O[C@H](CO)[C@@H](O)[C@H]2O)n1 [Ribavirin] What is its recorded z-score of subpopulation abundance?
-0.6

Consider the compound shown here: CC(C[N+](C)(C)C)OC(N)=O (stereo not drawn) [Bethanechol chloride] What is its recorded z-score of subpopulation abundance?
0.1

Consider the compound shown here: NC(=O)N1c2ccccc2C=Cc2ccccc21 [Carbamazepine] What is its recorded z-score of subpopulation abundance?
0.02

Consider the compound shown here: CS(=O)(=O)c1ccc([C@@H](O)[C@@H](CF)NC(=O)C(Cl)Cl)cc1 [Florfenicol] What is its recorded z-score of subpopulation abundance?
-0.4

Consider the compound shown here: CC1(C)S[C@@H]2[C@H](NC(=O)[C@H](N)c3ccccc3)C(=O)N2[C@H]1C(=O)O [Ampicillin sodium] What is its recorded z-score of subpopulation abundance?
-0.99

Consider the compound shown here: COc1ccc2cc3[n+](cc2c1OC)CCc1cc2c(cc1-3)OCO2 [Berberine chloride] What is its recorded z-score of subpopulation abundance?
-0.32

Consider the compound shown here: CCCCN1CCCCC1C(=O)Nc1c(C)cccc1C (stereo not drawn) [Bupivacaine HCl] What is its recorded z-score of subpopulation abundance?
0.32

Consider the compound shown here: COC(=O)Nc1nc2cc(C(=O)c3ccccc3)ccc2[nH]1 [Mebendazole] What is its recorded z-score of subpopulation abundance?
1.83

Consider the compound shown here: CC1CCc2cc(F)cc3c(=O)c(C(=O)O)cn1c23 (stereo not drawn) [Flumequine] What is its recorded z-score of subpopulation abundance?
-0.73

Consider the compound shown here: COc1ccc2[nH]c([S+]([O-])Cc3ncc(C)c(OC)c3C)nc2c1 (stereo not drawn) [Omeprazole] What is its recorded z-score of subpopulation abundance?
-0.19

Consider the compound shown here: Cc1cccc(C#Cc2ccccc2)n1 What is its recorded z-score of subpopulation abundance?
-0.43

Consider the compound shown here: COC(=O)C1=C(C)NC(C)=C(C(=O)OC(C)C)C1c1cccc2nonc12 (stereo not drawn) [Isradipine] What is its recorded z-score of subpopulation abundance?
-0.7

Consider the compound shown here: O=C1[C@H]2CCCC[C@H]2C(=O)N1CCCCN1CCN(c2nsc3ccccc23)CC1 [Perospirone hydrochloride] What is its recorded z-score of subpopulation abundance?
0.02

Consider the compound shown here: CC(C)Cc1ccc(C(C)C(=O)O)cc1 (stereo not drawn) [Ibuprofen] What is its recorded z-score of subpopulation abundance?
0.37

Consider the compound shown here: c1ccc2[nH]c(-c3cscn3)nc2c1 [Thiabendazole] What is its recorded z-score of subpopulation abundance?
-0.38

Consider the compound shown here: CC(=O)[O-].[K+] [Potassium acetate] What is its recorded z-score of subpopulation abundance?
-0.9

Consider the compound shown here: O=C1N=C(O)NC1(c1ccccc1)c1ccccc1 [Phenytoin Sodium] What is its recorded z-score of subpopulation abundance?
0.15

Consider the compound shown here: COc1cc2c(cc1OC)-c1cc3ccc(OC)c(OC)c3c[n+]1CC2 [Palmatine] What is its recorded z-score of subpopulation abundance?
0.37

Consider the compound shown here: C=C[C@]1(C)C[C@@H](OC(=O)CSC(C)(C)CNC(=O)[C@H](N)C(C)C)[C@]2(C)[C@H](C)CC[C@]3(CCC(=O)[C@H]32)[C@@H](C)[C@@H]1O [Valnemulin HCl] What is its recorded z-score of subpopulation abundance?
0.18

Consider the compound shown here: CCCCCCCCN=c1ccn(CCCCCCCCCCn2ccc(=NCCCCCCCC)cc2)cc1 [Octenidine Dihydrochloride] What is its recorded z-score of subpopulation abundance?
27.7

Consider the compound shown here: N[C@@H](CCC(=O)O)C(=O)O [(S)-Glutamic acid] What is its recorded z-score of subpopulation abundance?
0.07

Consider the compound shown here: C[N+](C)(C)CCO.[Cl-] [Choline Chloride] What is its recorded z-score of subpopulation abundance?
-0.83

Consider the compound shown here: CC1(C)S[C@@H]2[C@H](NC(=O)C(c3ccccc3)S(=O)(=O)O)C(=O)N2[C@H]1C(=O)O (stereo partly drawn) [Sulbenicillin Sodium] What is its recorded z-score of subpopulation abundance?
3.16

Consider the compound shown here: COc1ccc2c(c1)c(CC(=O)OCC(=O)O)c(C)n2C(=O)c1ccc(Cl)cc1 [Acemetacin] What is its recorded z-score of subpopulation abundance?
-0.3

Consider the compound shown here: O=C1C(CC[S+]([O-])c2ccccc2)C(=O)N(c2ccccc2)N1c1ccccc1 (racemic) [(+/-)-Sulfinpyrazone] What is its recorded z-score of subpopulation abundance?
0.61

Consider the compound shown here: COc1cccc2c1C(=O)c1c(O)c3c(c(O)c1C2=O)C[C@@](O)(C(C)=O)C[C@@H]3O[C@H]1C[C@H](N)[C@H](O)[C@H](C)O1 [Daunorubicin HCl] What is its recorded z-score of subpopulation abundance?
-0.29

Consider the compound shown here: CCCCCCCCCCCCCCCC[N+](C)(C)C [Cetrimonium Bromide (CTAB)] What is its recorded z-score of subpopulation abundance?
50.7

Consider the compound shown here: COc1ccc2cc(CCC(C)=O)ccc2c1 [Nabumetone] What is its recorded z-score of subpopulation abundance?
-0.91

Consider the compound shown here: CO[C@@H]1[C@@H](OC(N)=O)[C@@H](O)[C@H](Oc2ccc3c(O)c(NC(=O)c4ccc(O)c(CC=C(C)C)c4)c(=O)oc3c2C)OC1(C)C [Novobiocin Sodium] What is its recorded z-score of subpopulation abundance?
0.81

Consider the compound shown here: O=C(O)CCc1nc(-c2ccccc2)c(-c2ccccc2)o1 [Oxaprozin] What is its recorded z-score of subpopulation abundance?
-0.64

Consider the compound shown here: CN1CCN(C2=Nc3cc(Cl)ccc3Nc3ccccc32)CC1 [Clozapine] What is its recorded z-score of subpopulation abundance?
-0.52

Consider the compound shown here: C[C@@H]1CC(=O)NN=C1c1ccc(NN=C(C#N)C#N)cc1 [Levosimendan] What is its recorded z-score of subpopulation abundance?
-0.43

Consider the compound shown here: C[C@@H]1[C@H](O)[C@@H](C)/C=C/C=C/C=C/C=C/C=C/C=C/C=C/[C@H](O[C@@H]2O[C@H](C)[C@@H](O)[C@H](N)[C@@H]2O)C[C@@H]2O[C@](O)(C[C@@H](O)C[C@@H](O)[C@H](O)CC[C@@H](O)C[C@@H](O)CC(=O)O[C@H]1C)C[C@H](O)[C@H]2C(=O)O [Amphotericin B] What is its recorded z-score of subpopulation abundance?
12.6
